Experiment: Inhibition of Na/K-ATPase in porcine cerebral cortex
Type: tissue-based, Sus scrofa
Quantity Kind: IC50
Answer with the number, then the unit.

Example results:
compound=C[C@H]1O[C@@H](O[C@H]2CC[C@]3(C=O)[C@H]4CC[C@]5(C)[C@@H](C6=CC(=O)OC6)CC[C@]5(O)[C@@H]4CC[C@]3(O)C2)C[C@H](O)[C@@H]1O[C@@H]1OC[C@@H](O)[C@H](O)[C@H]1O quantity_kind=IC50 reported="160 nM"
compound="CC1OC(O[C@H]2CC[C@]3(/C=N/CCc4ccc(O)cc4)[C@H]4CC[C@]5(C)[C@@H](C6=CC(=O)OC6)CC[C@]5(O)[C@@H]4CC[C@]3(O)C2)CC(O)C1O (stereo partly specified)" quantity_kind=IC50 reported="2640 nM"
compound=C[C@]12CC[C@H]3[C@@H](CC[C@]4(O)C[C@@H](OC(=O)c5cccnc5)CC[C@]34C=O)[C@@]1(O)CC[C@@H]2C1=CC(=O)OC1 quantity_kind=IC50 reported="443 nM"
compound=C[C@H]1CCC([C@@H](C)[C@H]2CC[C@@H]3[C@@H]2CC[C@H]2[C@H]3CC(=O)[C@H]3C[C@@H](O)CC[C@@]32C)=NC1 quantity_kind=IC50 reported="143000 nM"
compound=C[C@]12CC[C@H]3[C@@H](CC[C@]4(O)C[C@@H](O)CC[C@]34/C=N/Nc3ccccc3)[C@@]1(O)CC[C@@H]2C1=CC(=O)OC1 quantity_kind=IC50 reported="4230 nM"

Kindly review the next compound as well.
Fill in the blank: the reported IC50 of "C[C@]12CC[C@H]3[C@@H](CC[C@]4(O)C[C@@H](O)CC[C@]34/C=N/C34CC5CC(CC(C5)C3)C4)[C@@]1(O)CC[C@@H]2C1=CC(=O)OC1" is ____.
313 nM
